Test: Half life in 0.1 N aqueous HCl buffer at pH 1
Assay type: physicochemical
Details: 0.1 N aqueous HCl buffer
half-life by entry:

# COMPOUND, half-life
rows = [
    ("COC(=O)N[C@H](C(=O)N[C@@H](Cc1ccccc1)[C@H](CN(Cc1ccc(-c2ccccn2)cc1)NC(=O)[C@@H](NC(=O)OC)C(C)(C)C)OC(=O)OCOC(=O)[C@H](C(C)C)N(C)C)C(C)(C)C", "> 20.8 days"),
    ("COC(=O)N[C@H](C(=O)N[C@@H](Cc1ccccc1)[C@H](CN(Cc1ccc(-c2ccccn2)cc1)NC(=O)[C@@H](NC(=O)OC)C(C)(C)C)OC(=O)OCOC(=O)[C@@H](N)Cc1ccccc1)C(C)(C)C", "0.708 days"),
    ("COC(=O)N[C@H](C(=O)N[C@@H](Cc1ccccc1)[C@H](CN(Cc1ccc(-c2ccccn2)cc1)NC(=O)[C@@H](NC(=O)OC)C(C)(C)C)OC(=O)OC(C)OC(=O)[C@@H](N)C(C)C)C(C)(C)C (stereo in doubt; 18)", "> 20.8 days"),
    ("COC(=O)N[C@H](C(=O)N[C@@H](Cc1ccccc1)[C@H](CN(Cc1ccc(-c2ccccn2)cc1)NC(=O)[C@@H](NC(=O)OC)C(C)(C)C)OC(=O)OC(C)OC(=O)[C@@H](C(C)C)N(C)C)C(C)(C)C (stereo in doubt; 23)", "> 20.8 days"),
]

----------
Assay: Trough plasma concentration in Sprague-Dawley rat at 30 mg/kg, po measured after 24 hrs
Type: ADME, organism-based
Conditions: read-out: Cmin

# STRUCTURE_SMILES_STRING, concentration at 24 h, nM
rows = [
    ("COC(=O)N[C@H](C(=O)N[C@@H](Cc1ccccc1)[C@@H](O)CN(Cc1ccc(-c2ccccn2)cc1)NC(=O)[C@@H](NC(=O)OC)C(C)(C)C)C(C)(C)C", 5),
]

----------
Assay: Half life in rat plasma measured after 60 mins
Assay type: ADME, cell-free

# COMPOUND, UNIT_ABBREV, half-life
data = [
    ("COC(=O)N[C@H](C(=O)N[C@@H](Cc1ccccc1)[C@H](CN(Cc1ccc(-c2ccccn2)cc1)NC(=O)[C@@H](NC(=O)OC)C(C)(C)C)OC(=O)OC(C)OC(=O)[C@H](C(C)C)N(C)C)C(C)(C)C (stereo in doubt; 21)", "min", 41),
]

----------
Experiment: Ratio of AUClast in Sprague-Dawley rat assessed as atazanavir to parent level at 3 mg/kg equiv of atazanavir administered orally
Format: ADME, organism-based
Settings: in vivo, po
The threshold is 2. Values of Ratio AUC beneath it are tagged 1; values meeting or exceeding it are tagged -1.

# COMPOUND, ANSWER_LABEL
records = [
    ("COC(=O)N[C@H](C(=O)N[C@@H](Cc1ccccc1)[C@H](CN(Cc1ccc(-c2ccccn2)cc1)NC(=O)[C@@H](NC(=O)OC)C(C)(C)C)OC(=O)OC(C)OC(=O)[C@H](C(C)C)N(C)C)C(C)(C)C (stereo in doubt; 22)", -1),
    ("COC(=O)N[C@H](C(=O)N[C@@H](Cc1ccccc1)[C@H](CN(Cc1ccc(-c2ccccn2)cc1)NC(=O)[C@@H](NC(=O)OC)C(C)(C)C)OC(=O)OC(C)OC(=O)[C@@H](C(C)C)N(C)C)C(C)(C)C (stereo in doubt; 24)", -1),
    ("COC(=O)N[C@H](C(=O)N[C@@H](Cc1ccccc1)[C@H](CN(Cc1ccc(-c2ccccn2)cc1)NC(=O)[C@@H](NC(=O)OC)C(C)(C)C)OC(=O)OC(C)OC(=O)[C@H](C(C)C)N(C)C)C(C)(C)C (stereo in doubt; 21)", 1),
    ("COC(=O)N[C@H](C(=O)N[C@@H](Cc1ccccc1)[C@H](CN(Cc1ccc(-c2ccccn2)cc1)NC(=O)[C@@H](NC(=O)OC)C(C)(C)C)OC(=O)OCOC(=O)[C@H](C(C)C)N(C)C)C(C)(C)C", -1),
]
